Where do these numbers come from? They come from ChEMBL document CHEMBL4828732.

tested on: MDA-MB-453; assay: cells; conditions: Homo sapiens, MDA-MB-453, 72 h
// assign class 1 if IC50 falls strictly below 3000 nM, else class 0 (ties count as class 0)

Example results:
Oc1c(CN2CCCC2)cc(Cn2ncc(-c3ccsc3)n2)c2cccnc12
class 1
N#Cc1ccc(-c2cnn(Cc3cc(CN4CCCC4)c(O)c4ncccc34)n2)cc1
class 0
Oc1c(CN2CCCC2)cc(Cn2ncc(-c3ccccc3Br)n2)c2cccnc12
class 0

With those in mind, consider the next compound.
[in] API: query returns whether the compound falls strictly under 3000 nM in IC50. Query: Oc1c(CN2CCCC2)cc(Cn2ncc(-c3ccc(OCc4ccccc4)cc3)n2)c2cccnc12
[out] class 1

----------
test system: MDA-MB-435; test: cells; settings: Homo sapiens, MDA-MB-435, 72 h
Entries annotated with measured pIC50
Give only the number. pIC50 is defined as minus log10 of concentration in molar units.

Field: example entries. Status: answers known.
Oc1c(CN2CCCC2)cc(Cn2ncc(-c3ccsc3)n2)c2cccnc12
5.32
Oc1c(CN2CCOCC2)cc(Cn2ncc(-c3ccc(Br)cc3)n2)c2cccnc12
5.62
Oc1c(CN2CCCC2)cc(Cn2cnc(-c3ccccc3)c2)c2cccnc12
5.05
Oc1c(CN2CCCC2)cc(Cn2ncc(-c3ccccc3)n2)c2cccnc12
5.30
Cc1ccc(-c2cc(COCc3ccc(C(C)C)cc3)c3cccnc3c2O)cc1
5.74

[in] What measured pIC50 is associated with Oc1c(CN2CCCC2)cc(Cn2ncc(-c3cccc(Br)c3)n2)c2cccnc12 on MDA-MB-435?
[out] 5.59

[in] What measured pIC50 is associated with COc1ccc(-c2cc(COCc3ccc(C(C)C)cc3)c3cccnc3c2O)cc1 on MDA-MB-435?
[out] 5.72

[in] What measured pIC50 is associated with Oc1c(CN2CCCCC2)cc(Cn2ncc(-c3ccc(Br)cc3)n2)c2cccnc12 on MDA-MB-435?
[out] 5.66

----------
tested on: MDA-MB-435; assay: cells; conditions: Homo sapiens, MDA-MB-435, 72 h
OUTCOME MEASURE: pIC50
Give only the number. pIC50 is defined as minus log10 of concentration in molar units.

Oc1c(CN2CCCC2)cc(COC2Cc3ccccc3C2)c2cccnc12
5.66
CC(C)c1ccc(COCc2cc(-c3ccsc3)c(O)c3ncccc23)cc1
5.96

[in] # lookup: pIC50 of Oc1c(CN2CCCC2)cc(Cn2ncc(-c3ccc(OCc4ccccc4)cc3)n2)c2cccnc12
[out] 5.49

[in] # lookup: pIC50 of CC(C)c1ccc(COCc2cc(CN3CCCC3)c(O)c3ncccc23)cc1
[out] 5.46

[in] # lookup: pIC50 of CC(C)c1ccc(COCc2cc(Br)c(O)c3ncccc23)cc1
[out] 5.68

----------
Entries annotated with measured Ratio IC50
experiment: Resistance index, ratio of IC50 for antiproliferation activity against human MDA-MB-435/LCC6MDR cells to IC50 for antiproliferation activity against human MDA-MB-435 cells assessed as cell growth inhibition measured after 72 hrs by MTS assay; type: functional
Answer with the value's number alone.

Field: example entries. Status: answers known.
CC(C)c1ccc(COCc2cc(CN3CCCC3)c(O)c3ncccc23)cc1
0.6
Oc1c(CN2CCCC2)cc(Cn2ncc(-c3ccc(C(F)(F)F)cc3)n2)c2cccnc12
0.3
Oc1c(CN2CCNCC2)cc(Cn2ncc(-c3ccc(Br)cc3)n2)c2cccnc12
1.1
Oc1c(CN2CCCC2)cc(COC2Cc3ccccc3C2)c2cccnc12
1
Oc1c(CN2CCCCC2)cc(Cn2ncc(-c3ccc(Br)cc3)n2)c2cccnc12
0.5
Cc1ccc(-c2cnn(Cc3cc(CN4CCCC4)c(O)c4ncccc34)n2)cc1
0.4
Oc1c(CN2CCCC2)cc(Cn2ncc(-c3ccsc3)n2)c2cccnc12
0.3
Cc1cccc(-c2cc(COCc3ccc(C(C)C)cc3)c3cccnc3c2O)c1
0.6
CC(C)c1ccc(COCc2cc(Br)c(O)c3ncccc23)cc1
0.1

Now for another entry.
[in] # lookup: Ratio IC50 of CC(C)c1ccc(COCc2cc(-c3ccc(C(F)(F)F)cc3)c(O)c3ncccc23)cc1
[out] 0.6
